Recorded GI50, one value per entry.
System: U-251
Assay: NCI tumour cell line growth inhibition, 48 h
Calls of active or inactive are those of the source. No stated cut-off is given here; in the data, active = GI50 up to about 1.1 µM and inactive = higher.

Worked examples follow.
{"columns": ["compound", "result"],
 "data": [
  ["O=C1Oc2ccccc2C(=O)/C1=C/N1C(=O)N/C(=C\\c2cccc(O)c2)C1=O", "> 100 µM (inactive)"],
  ["CC1C=C(NCC2(CO)CCC2)N=C(N)N1 (stereo unspecified)", "> 100 µM (inactive)"],
  ["O=C(c1ccccc1)c1ccc2c(c1)nc1n2C(c2c(Cl)cccc2Cl)SC1 (stereo unspecified)", "69.5 µM (inactive)"]
]}

Test system U-251; read-out GI50; what value for COc1c(CC(C)=O)c2ccccc2n1C(C)=O ?
> 100 µM (inactive)

Test system U-251; read-out GI50; what value for Cc1csc2nc(-c3ccc(Cl)c([N+](=O)[O-])c3)c(/C=N/NC(=N)N)n12 ?
1.5 µM (inactive)

Test system U-251; read-out GI50; what value for CCCCOC(=O)CNC(=O)OCCCCC#CC#CCCCCOC(=O)NCC(=O)OCCCC ?
> 100 µM (inactive)

Test system U-251; read-out GI50; what value for CCOc1cc(C(=O)O)c2c(ccc3ccc(OC)c(OC)c32)c1OC ?
> 100 µM (inactive)

Test system U-251; read-out GI50; what value for O=C(Nc1nccs1)c1cc(C2=CC=CC([N+](=O)[O-])C=C2)nc(S)n1 (stereo unspecified) ?
> 100 µM (inactive)

Test system U-251; read-out GI50; what value for N#CCOc1cccc(C2(N3CC=CCC3)CCCCC2)c1 ?
> 100 µM (inactive)

Test system U-251; read-out GI50; what value for O=C1NC(=O)C(Cc2ccccc2)(c2cccnc2)N1 (stereo unspecified) ?
> 100 µM (inactive)

Test system U-251; read-out GI50; what value for CN(C)c1ccc(/C=c2/sc3nc(=O)c(-c4ccccc4NC(=O)C(F)(F)F)nn3c2=O)cc1 ?
53.3 µM (inactive)

###

System: DU-145
Experiment: NCI tumour cell line growth inhibition, 48 h
Activity calls are given as the source filed them. Cut-off read from the data, not from the text of the source: active = GI50 up to about 1.1 µM and inactive = higher.
Recorded GI50, one value per entry.

Worked examples follow.
{"columns": ["compound", "GI50"],
 "data": [
  ["O=S(=O)(N/C(=N\\O)Nc1ccc(Cl)cc1)c1ccc(S(=O)(=O)c2ccccc2)s1", "19.5 µM (inactive)"],
  ["CC(=O)Nc1ccc2nc(-c3ccccn3)c(-c3ccccn3)nc2c1", "> 100 µM (inactive)"],
  ["Brc1c(C#CCC(c2ccccc2)(c2ccccc2)c2ccccc2)ccc(C#CCC(c2ccccc2)(c2ccccc2)c2ccccc2)c1Br", "> 100 µM (inactive)"],
  ["CC1=NN(c2nc(N)nc(COc3ccc(N)cc3)n2)C(C)(C)C1", "> 100 µM (inactive)"],
  ["Fc1ccc(/N=C/C=C/Nc2ccc(F)cc2)cc1", "13.5 µM (inactive)"],
  ["O=C(O)c1ccc2c(c1C(=O)O)C(=O)OC2(c1ccc(O)cc1)c1ccc(O)cc1", "> 100 µM (inactive)"],
  ["COc1cc(/C=C2\\N=C(c3ccccc3)N(c3nc4cc(C)c(C)cc4s3)C2=O)cc(OC)c1OC", "45.4 µM (inactive)"],
  ["CC1(C)C2CC(=O)C1(C)C(O)C2Br (stereo not given)", "> 100 µM (inactive)"],
  ["O=[N+]([O-])/C(Cl)=C(/C(Cl)=C(Cl)Cl)N1CCOCC1", "13.7 µM (inactive)"]
]}

Next, consider the following compound.
Given the compound CC(=O)OCCn1c(Cc2ccc(Cl)cc2)nn(C(C)=O)c1=O , what is its reported GI50?
> 100 µM (inactive)

###

Recorded GI50, one value per entry.
Test system: SK-MEL-5
Assay: NCI tumour cell line growth inhibition, 48 h
The source made the active and inactive calls. No stated cut-off is given here; in the data, active = GI50 up to about 1.1 µM and inactive = higher.

{"columns": ["compound", "result"],
 "data": [
  ["CC1(C)[C@@H]2CC[C@@]1(C)C1(S[S+]1[O-])C21Cc2ccccc2C1 (some centres not stated)", "> 10 µM (inactive)"],
  ["CC1=CC(C2/C(=N/O)C=C(C)CC2(C)C)C(O)C(C)(C)C1 (configuration not stated)", "15.1 µM (inactive)"],
  ["Clc1ccc(NCc2nnc(CCCCCCCCc3nnc(CNc4ccc(Cl)cc4)o3)o2)cc1", "> 100 µM (inactive)"],
  ["COC1C2c3ccccc3C(C#N)(Cc3ccc4c(c32)OCO4)N1C(=O)c1ccccc1 (configuration not stated)", "3.76 µM (inactive)"],
  ["CCOP12(OCC)NC(=O)OC1(C(F)(F)F)c1ccccc1O2 (configuration not stated)", "> 100 µM (inactive)"]
]}

Given the compound CC(C)(C)OC1=C(OC(C)(C)C)C(O)(c2ccccc2)C1=O (configuration not stated) , what is its reported GI50?
> 100 µM (inactive)

Given the compound N/C(=N\N=C\c1nc2ccccc2o1)c1cnccn1 , what is its reported GI50?
> 100 µM (inactive)

Given the compound O=C1CC(c2cccc([N+](=O)[O-])c2)C2(C(=O)NC(=S)NC2=O)C(c2cccc([N+](=O)[O-])c2)C1 (configuration not stated) , what is its reported GI50?
82.2 µM (inactive)

###

Tested on: EKVX
Experiment: NCI tumour cell line growth inhibition, 48 h
Active and inactive are the calls of the source. Cut-off read from the data, not from the text of the source: active = GI50 up to about 1.1 µM and inactive = higher.
Outcomes you can answer with include only these: active, inactive

{"columns": ["molecule", "experimentalSystem", "labelValue"],
 "data": [
  ["Cc1ccccc1C(=N)c1ccccc1Cc1cccc2ccccc12", "EKVX", "inactive"],
  ["O=[N+]([O-])/C(Cl)=C(/C(Cl)=C(Cl)Cl)N1CCOCC1", "EKVX", "inactive"],
  ["CCCCCCCCCCCC(=O)C1=C(O)CC(O)CC1=O (stereo not given)", "EKVX", "inactive"],
  ["CNCCCCN(C)/[N+]([O-])=N\\O", "EKVX", "inactive"],
  ["Oc1cc(-c2ccccc2)nc2cc3c(cc12)OCO3", "EKVX", "inactive"]
]}

Hi, do you know how O=C(Nc1ccc(Cl)c(Cl)c1)C(=O)C(C(=O)c1ccccc1-c1ccccc1)C1OC(=O)c2ccccc21 (stereo not given) came out in this test?
inactive

Hi, do you know how Cc1ccc(C)c(NC(=O)C(=O)C2C(=O)C3=C(CC2(C)C)Nc2ccccc2S3)c1 (stereo not given) came out in this test?
inactive

Hi, do you know how O=C1C=CC(=CC=C2C=CN(CCCCCCCCCCC(=O)NCCCCCCCCCCCC(=O)O)C=C2)C=C1 came out in this test?
inactive

Hi, do you know how N#Cc1ccccc1-c1nc2c3c(c(N)ccc3n1)C(=O)c1ccccc1-2 came out in this test?
inactive

Hi, do you know how Cc1cc(C)c2c(SCc3ccc(Cl)cc3Cl)nc(N)nc2n1 came out in this test?
inactive

Hi, do you know how N#CCOc1cccc(C2(N3CC=CCC3)CCCCC2)c1 came out in this test?
inactive

Hi, do you know how O=c1[nH]cc(F)c(=O)[nH]1 [FLUOROURACIL] came out in this test?
inactive

Hi, do you know how CC(C)CCOC(=O)NC(Nc1ccc(F)cc1)(C(F)(F)F)C(F)(F)F came out in this test?
inactive

Hi, do you know how O=C(Nc1cccc(Cl)c1)Nn1cnnc1 came out in this test?
inactive

Hi, do you know how CC[C@]12C=CCN3CC[C@@]4(c5cc(N=O)c(OC)cc5N(C)[C@H]4[C@@](O)(C(=O)NC(Cc4c[nH]c5ccccc45)C(=O)OC)[C@@H]1O)[C@@H]32 (stereo not given in full) came out in this test?
inactive

Hi, do you know how CCCCCCC(C)c1ccc2c(c1)C(=O)c1nc3ccncc3c(=O)n1-2 (stereo not given) came out in this test?
inactive

Hi, do you know how CC(C)OC(=O)C1=C2c3ncccc3C(=O)N2[C@@H](Cl)[C@H](Cl)[C@H]1Cl came out in this test?
inactive

Hi, do you know how COC(=O)C1=C(C(=O)OC)C2(C3C(SC)=CC(C)(C)CC3S1)N(Cc1ccccc1)CCN2Cc1ccccc1 (stereo not given) came out in this test?
inactive

Hi, do you know how Cc1cc(C(=O)CCCCOc2ccc(C3=NCCO3)cc2)c(C)n1C came out in this test?
inactive

Hi, do you know how CN1C(=O)C(c2c[nH]c3ccccc23)N(C)C(=O)C1c1c[nH]c2ccccc12 (stereo not given) came out in this test?
inactive

Hi, do you know how O=C1[C@@H]2C(c3ccc(Cl)cc3Cl)=NO[C@@H]2C(=O)N1c1ccc(Cc2ccc(N3C(=O)[C@H]4C(c5ccc(Cl)cc5Cl)=NO[C@H]4C3=O)cc2)cc1 came out in this test?
inactive

Hi, do you know how O=C(c1ccccc1)c1ccc(OCCOc2ccc(Nc3ccccc3)cc2)cc1 came out in this test?
inactive

Hi, do you know how CN1C(=O)NC(=O)/C(=C\Nc2ncccn2)C1=O came out in this test?
inactive

Hi, do you know how CC[C@H](C)[C@H](NC(=O)[C@@]1(O)[C@H](O)[C@]2(CC)C=CCN3CC[C@@]4(c5cc(Br)c(OC)cc5N(C)[C@@H]14)[C@@H]32)C(=O)OC came out in this test?
inactive

Hi, do you know how C/C(=N\NC(N)=S)c1ccc2c(c1)OCO2 came out in this test?
inactive

Hi, do you know how COC(=O)/C=C1/CCC(C)(C(=O)NS(=O)(=O)c2ccc(C)cc2)C1(C)C (stereo not given) came out in this test?
inactive

Hi, do you know how Cc1ccc(NC(=O)CC2C(=O)Nc3ccccc3S2(=O)=O)c(C)c1 (stereo not given) came out in this test?
inactive

Hi, do you know how C=CCCCCCCC#CCCCCCCCCCC[C@@H]1C(=O)O[C@H](C)[C@@H]1O.CCCCCCCCC#CCCCCCCCCCC[C@@H]1C(=O)O[C@H](C)[C@@H]1O came out in this test?
inactive

Hi, do you know how O=C(OC(=O)n1ccc2ccccc21)n1ccc2ccccc21 came out in this test?
inactive

Hi, do you know how COc1c2c(c3c(c1CCC(=O)O)OC(C)(C)C=C3)OC(C)(C)C=C2 came out in this test?
inactive

Hi, do you know how CC(C)(C)c1cc2nc(c1)C(C(F)(F)F)(C(F)(F)F)OB(Br)OC2(C(F)(F)F)C(F)(F)F came out in this test?
active
